Give measured INHIBITION for each item. Keep answers brief.
- System: Plasmodium berghei
- protocol-summary: Screen against P. berghei liver stage (PbLuc), transformed with Luciferase, at 10uM
- Type: functional, HepG2
- details: tested at 10 uM
Out of some 69,000 compounds screened, about 8,600 (12%) showed an effect of 50% or more. The sample holds strong results, similar compounds and a random draw of the others, so the mix is not that of the screen.

Previously resolved entries follow.
Data point: Cc1ncccc1NC(=O)[C@@H]1CCO[C@@H]2CCN(c3ccccc3)C[C@@H]21 ; INHIBITION = 41.4%

Data point: CN(C)C(=O)CNC(=O)Nc1cccc(Cl)c1SC(F)F ; INHIBITION = 23.2%

I have 4 compounds here; please give me INHIBITION for each one.
1. CN(C)C(=O)COC[C@]12COC[C@H]1CN(CCc1ccccc1)C2
2. CC(=O)NCCNC(=O)Nc1cccc(Cl)c1SC(F)F
3. O=C(CNC(=O)Nc1cccc(Cl)c1SC(F)F)NC1CC1
4. Nc1nc2nc(C3CCCN(C(=O)c4cncs4)C3)ccc2s1 (stereo unspecified)

1: 24.3%; 2: 46.4%; 3: 29.5%; 4: 18.3%
